- Assay Target: HLA-A*29:02
- Test Details: IEDB peptide-MHC binding, purified MHC/direct/fluorescence; filed as Kd, often an IC50 or EC50 that approximates it; bounds were set here for any values at or beyond the usual limits of such assays
- Condition Context: source organism: Mycobacterium tuberculosis
pKd: −log10 of the molar value.
Assay Readout: pKd

Prompt: Look up pKd: `IQAVFGFSL`
Response: ≤ 4.70

====

- Assay Target: HLA-A*69:01
- Test Details: IEDB peptide-MHC binding, purified MHC/competitive/fluorescence; filed as Kd, often an IC50 or EC50 that approximates it; bounds were set here for any values at or beyond the usual limits of such assays
- Condition Context: source organism: Homo sapiens
Assay Readout: Kd

[
  {
    "Sequence Entry": "SSDLRSWTF",
    "Kd": "≥ 20 µM"
  }
]

Next item in the queue.
Prompt: What value of Kd on HLA-A*69:01 does `KMFTYLMES` have?
Response: ≥ 20 µM
